Record form. Attribute: inhibition. Fill in for each entry.
- tgt: Virion infectivity factor (Human immunodeficiency virus type 1 group M subtype B (isolate BH10)) + Virion infectivity factor (Human immunodeficiency virus type 1 group M subtype B (isolate BRU/LAI)) + Virion infectivity factor (Human immunodeficiency virus type 1 group M subtype B (isolate PCV12)) + Virion infectivity factor (Human immunodeficiency virus type 1 group M subtype B (isolate HXB2)) + DNA dC->dU-editing enzyme APOBEC-3G (Homo sapiens) (UniProt P69720+P69721+P69722+P69723+Q9HC16)
- assay_overview: inhibitors of Vif binding to APOBEC3G peptide, primary screen, biochemical, TR-FRET, GST-Vif 1-94, biotin-A3G peptide, dose response retest (AID 1117319);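 also: Vif residues 1-94 fused to GST binding biotinylated APOBEC3G peptide 110-148; 0% = full assay without inhibitor and 100% = GST in place of GST-Vif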
- test_settings: hits give high values
Out of some 260,000 compounds screened, about 1,500 (0.58%) were called active. Another 5% or so got no clear call; they are omitted. Not all results are given here. Entries with a potency or affinity are not part of this list.
Answers are plain numbers, in %.

INSERT INTO results (compound, attribute_measured, result_unit, value_measured) VALUES
  ('COc1cccc(CN2CCN(Cc3cccc4c3OCO4)CC2CCO)c1 (stereo unspecified)', 'inhibition', '%', -2.33),
  ('O=c1c2cc(N3CCOCC3)ccc2[nH]c(=S)n1CCN1CCCC1', 'inhibition', '%', 12.5),
  ('Cc1ccc(NC(=O)c2cc(-c3ccco3)nc3ccccc23)cc1S(=O)(=O)N1CCOCC1', 'inhibition', '%', 32.6),
  ('CC1=CC(=O)C=C(C)C1=NOS(=O)(=O)c1ccccc1', 'inhibition', '%', 9.66);

Give inhibition for all compounds that follow.
1. Cc1cc(NN)nc2ccc(Cl)cc12
2. CCOc1cccc(/C=C2\NC(=S)N(c3ccccc3)C2=O)c1O
3. COc1ccc2cc(C3=CC(=O)CC(C)(C)C3=O)ccc2c1
4. CCOc1ccc(NC(=O)CN(C)C(=O)c2cc(-c3ccco3)nc3ccccc23)cc1OCC
5. CN(c1ccccc1)P(=O)(N(C)c1ccccc1)N(C)c1ccccc1
6. COC(CNC(=O)c1ccc(CS(=O)(=O)c2c(Cl)cccc2Cl)o1)OC
7. O=c1cc(-c2ccccc2F)oc2ccccc12
8. CCc1cc(=O)n2[nH]c(C)c(-c3ccc(OC)cc3)c2n1

1: 21; 2: 8.76; 3: 4.18; 4: -2.81; 5: -2.89; 6: -0.54; 7: 17.5; 8: -3.08

Quick request: inhibition for each listed item, please.
1. CC(C)(C)c1ccc(OCCC(=O)Nc2cccc(S(=O)(=O)NC3=NCCCCC3)c2)cc1
2. Cn1c(SCCC#N)nnc1-c1ccc(F)cc1

1: -0.89; 2: 11.1

###

- tgt: Virion infectivity factor (Human immunodeficiency virus type 1 group M subtype B (isolate BH10)) + Virion infectivity factor (Human immunodeficiency virus type 1 group M subtype B (isolate BRU/LAI)) + Virion infectivity factor (Human immunodeficiency virus type 1 group M subtype B (isolate PCV12)) + Virion infectivity factor (Human immunodeficiency virus type 1 group M subtype B (isolate HXB2)) + DNA dC->dU-editing enzyme APOBEC-3G (Homo sapiens) (UniProt P69720+P69721+P69722+P69723+Q9HC16)
- assay_overview: inhibitors of Vif binding to APOBEC3G peptide, primary screen, biochemical, TR-FRET, GST-Vif 1-94, biotin-A3G peptide, dose response retest (AID 1117319);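 also: Vif residues 1-94 fused to GST binding biotinylated APOBEC3G peptide 110-148; 0% = full assay without inhibitor and 100% = GST in place of GST-Vif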
- test_settings: hits give high values
In all, about 260,000 compounds went through this assay and about 1,500 (0.58%) were called active. Roughly 5% stayed inconclusive and do not appear here. Only a sample is shown. Measured potencies and affinities stand elsewhere.
Please provide measured inhibition for the entries that follow.
Answers are plain numbers, in %.

INSERT INTO measurements (compound, attribute_measured, result_unit, value_measured) VALUES
  ('Cc1nonc1-c1csc(N)n1', 'inhibition', '%', -6.95),
  ('COc1ccccc1CNC(=O)COc1ccc2c(c1)CCC2', 'inhibition', '%', -14.6),
  ('CN(C)N1C(N)=C(C#N)C(c2ccccc2)C2=C1CCCC2=O (centres undefined)', 'inhibition', '%', 9.57);

Here is another compound to look at.
Reported inhibition for CC1=C(C(=O)Nc2ccccc2)C(c2ccco2)NC(=S)N1 (centres undefined) : what is it? -0.58

###

- tgt: Virion infectivity factor (Human immunodeficiency virus type 1 group M subtype B (isolate BH10)) + Virion infectivity factor (Human immunodeficiency virus type 1 group M subtype B (isolate BRU/LAI)) + Virion infectivity factor (Human immunodeficiency virus type 1 group M subtype B (isolate PCV12)) + Virion infectivity factor (Human immunodeficiency virus type 1 group M subtype B (isolate HXB2)) + DNA dC->dU-editing enzyme APOBEC-3G (Homo sapiens) (UniProt P69720+P69721+P69722+P69723+Q9HC16)
- assay_overview: inhibitors of Vif binding to APOBEC3G peptide, primary screen, biochemical, TR-FRET, GST-Vif 1-94, biotin-A3G peptide, dose response retest (AID 1117319);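 also: Vif residues 1-94 fused to GST binding biotinylated APOBEC3G peptide 110-148; 0% = full assay without inhibitor and 100% = GST in place of GST-Vif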
- test_settings: hits give high values
Out of some 260,000 compounds screened, about 1,500 (0.58%) were called active. Another 5% or so got no clear call; they are omitted. A selection follows. Results with a measured potency or affinity are listed apart.
Would you mind telling me the reported inhibition of each entry?
Answers are plain numbers, in %.

INSERT INTO measurements (compound, value_measured) VALUES
  ('Nc1nc2nc(-c3ccc(F)cc3)cc(C(F)(F)F)n2n1', 12.1),
  ('COc1cc(C2CC(=O)N3CN(Cc4ccco4)CSC3=C2C#N)ccc1OCc1ccccc1 (stereo not given)', 24.2),
  ('COC(=O)c1cc(C(=O)OC)cc(S(=O)(=O)Nc2ccc(Cl)c(N)c2)c1', -4.45);

Value sought for every listed compound: inhibition.
1. CC(C)C1CC(C(F)(F)F)n2nc(C(=O)O)cc2N1 (stereo not given)
2. CC(/C=C1\SC(=S)N(C(C(=O)O)C(C)C)C1=O)=C\c1ccccc1 (stereo not given)
3. CCOc1cccc2sc(N(CCCN(C)C)C(=O)Cc3ccccc3)nc12
4. CCN(C(=O)COC(=O)c1oc2ccc(OC)cc2c1C)C1CCCCC1
5. CC1=C([N+](=O)[O-])C(c2ccc(Cl)cc2)NC(=O)N1C (stereo not given)
6. CCCCCCC(O)(c1ccccc1)C(CN1CCOCC1)c1ccccc1 (stereo not given)
7. CCN(CC(=O)Nc1ccc(NC(C)=O)cc1)C(=O)c1ccc2ccccc2c1
8. Cc1ccc(NC(=O)C(=O)NCc2ccc(/C=N/NC(=O)c3c(C)nc4cc(C)ccn34)o2)cc1

1. 7.12
2. 9.15
3. 3.08
4. -5.77
5. 6.98
6. 0.34
7. 8.12
8. 19.2

State the recorded inhibition for every item in the following list.
1. CCCSc1cc(N)cc([N+](=O)[O-])c1
2. CCOC(=O)c1ccc(N/C=C2/CCCC(C)C2=O)cc1 (stereo not given)
3. O=C(O)C1CCC(NSc2ccccc2[N+](=O)[O-])CC1 (stereo not given)
4. Cc1ccc(-c2cc(C(=O)N/N=C/C(Br)=C/c3ccccc3)n[nH]2)o1
5. CCOC(=O)C1=C(O)/C(=C\c2sccc2C)N=C1C
6. CCN(CC)c1ccc(C=Nc2cc(C)cc(C)c2)c(O)c1

[-12.3, 1.6, -7.35, 27.2, 0.95, 9.03]

Go through the list and state inhibition for each entry.
1. CCOP(=O)(OCC)c1nc(-c2cccc([N+](=O)[O-])c2)oc1N1CCCCC1
2. CC(C)CC(=O)N1CCN(C(=O)c2cccc(F)c2)CC1
3. COC(=O)c1ccc(C2Nc3ccc(/C(C)=N/NC(=O)C(OC)c4ccccc4)cc3C3C=CCC32)cc1 (stereo not given)

1. 5.71
2. -7.36
3. 11.3

For the 5 compounds below, give their inhibition values.
1. CCOc1ccccc1NC(=O)c1cc2ccccc2oc1=O
2. COc1cc2c(cc1OC)C(=O)CCC2
3. COc1cccc(-n2nc(C(N)=O)c(O)cc2=O)c1
4. Cc1ccc(NC(=O)C(=O)NCc2ccc(/C=N/NC(=O)c3c(C)nc4ccccn34)o2)cc1
5. Cn1nnnc1SCCNS(=O)(=O)c1ccccc1

1. 5.96
2. -1.94
3. -7.89
4. 26.2
5. 2.62

###

I'd be grateful if you could share measured inhibition for these entries.
- tgt: Virion infectivity factor (Human immunodeficiency virus type 1 group M subtype B (isolate BH10)) + Virion infectivity factor (Human immunodeficiency virus type 1 group M subtype B (isolate BRU/LAI)) + Virion infectivity factor (Human immunodeficiency virus type 1 group M subtype B (isolate PCV12)) + Virion infectivity factor (Human immunodeficiency virus type 1 group M subtype B (isolate HXB2)) + DNA dC->dU-editing enzyme APOBEC-3G (Homo sapiens) (UniProt P69720+P69721+P69722+P69723+Q9HC16)
- assay_overview: inhibitors of Vif binding to APOBEC3G peptide, primary screen, biochemical, TR-FRET, GST-Vif 1-94, biotin-A3G peptide, dose response retest (AID 1117319);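 also: Vif residues 1-94 fused to GST binding biotinylated APOBEC3G peptide 110-148; 0% = full assay without inhibitor and 100% = GST in place of GST-Vif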
- test_settings: hits give high values
Among all 260,000 compounds or so, about 1,500 (0.58%) were called active. About 5% were inconclusive and are not listed. Not all results are given here. Entries with a potency or affinity are not part of this list.
One number for each entry, in %.

INSERT INTO results (compound, value_measured) VALUES
  ('CCCCNC(=O)Cn1c2c(c(-c3ccccc3Cl)cc1=O)CCC2', 11.2),
  ('CCOc1cc(C(=O)Oc2cc(C)[nH]c(=O)c2[N+](=O)[O-])cc(OCC)c1OCC', -2.15);

I'm hoping you can list inhibition for every compound here, please.
1. Cc1ccccc1NC(=O)Cc1nc(COC(=O)COc2cccc(C)c2C)cs1
2. COc1ccc(Cl)cc1C(=O)Nc1ccccc1N1CCN(C)CC1
3. N#Cc1cc(N2CCCCC2)c([N+](=O)[O-])cc1C#N
4. CCCCCCCCC#Cc1nc(C)ccc1OC
5. CCCCN=C1NC(=O)C(CC(=O)NCCc2ccc(OC)cc2)S1 (centres undefined)
6. O=C(CSc1ccc2nnc(-c3ccncc3)n2n1)Nc1nccs1
7. C[n+]1ccn(CC(=O)c2cccs2)c1
8. COc1ccc(CN(CC(=O)NC2CCCC2)C(=O)c2onc(C(N)=O)c2N)cc1

1. -1.31
2. 1.41
3. -2.18
4. -3.1
5. 21.5
6. -1.26
7. -0.3
8. 30.2
